Below is a list of entries, each paired with its recorded kon value.
# targetEntity: T1, Human BCMA (human, UniProt Q02223 1-54, limits assumed)
# T1 construct: also called huBCMA; B-cell maturation antigen
# T1 sequence (looked up): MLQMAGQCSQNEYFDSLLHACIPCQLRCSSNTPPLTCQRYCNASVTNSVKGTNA
# assayName: SPR, IgG immobilised, human BCMA analyte
Number only, in M⁻¹ s⁻¹; omit the unit.

A selection of reference data follows.
1. C01_Rd4_0.6nM_C06 (antibody, V domains shown, IgG) VH: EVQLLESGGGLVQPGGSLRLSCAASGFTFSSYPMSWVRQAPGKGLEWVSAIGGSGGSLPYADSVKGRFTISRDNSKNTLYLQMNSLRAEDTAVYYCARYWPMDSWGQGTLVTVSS VL: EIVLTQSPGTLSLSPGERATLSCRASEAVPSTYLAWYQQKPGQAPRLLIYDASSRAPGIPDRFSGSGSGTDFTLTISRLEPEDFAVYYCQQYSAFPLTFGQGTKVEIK = 1.82e+07
2. C01_Rd4_6nM_C24 (antibody, V domains shown, IgG) VH: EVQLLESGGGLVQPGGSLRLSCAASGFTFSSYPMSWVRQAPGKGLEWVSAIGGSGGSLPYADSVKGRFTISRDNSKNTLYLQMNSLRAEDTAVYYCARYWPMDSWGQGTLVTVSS VL: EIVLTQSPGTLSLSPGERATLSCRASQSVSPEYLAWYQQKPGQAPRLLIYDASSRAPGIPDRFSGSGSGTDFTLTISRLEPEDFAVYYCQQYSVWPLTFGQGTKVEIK = 7.47e+06
3. COMBO_Rd4_6nM_C08 (antibody, V domains shown, IgG) VH: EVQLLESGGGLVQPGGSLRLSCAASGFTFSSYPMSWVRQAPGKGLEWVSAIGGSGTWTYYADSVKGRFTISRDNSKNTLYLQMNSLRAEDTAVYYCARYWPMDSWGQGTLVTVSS VL: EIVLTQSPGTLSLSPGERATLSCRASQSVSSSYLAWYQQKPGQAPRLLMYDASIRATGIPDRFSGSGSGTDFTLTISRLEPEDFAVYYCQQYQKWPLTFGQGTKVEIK = 8.99e+06
4. A02_Rd4_6nM_C26 (antibody, V domains shown, IgG) VH: EVQLLESGGGLVQPGGSLRLSCAASGFTFSSYAMNWVRQAPGKGLEWVSAISDSGGSTYYADSVKGRFTISRDNSKNTLYLQMNSLRAEDTAVYYCARYWPMSLWGQGTLVTVSS VL: EIVLTQSPGTLSLSPGERATLSCRASQSVSSLYLAWYQQKPGQAPRLLMYDASIRATGIPDRFSGSGSGTDFTLTISRLEPEDFAVYYCQQYQVWPLTFGQGTKVEIK = 4.26e+06
5. A02_Rd4_0.6nM_C18 (antibody, V domains shown, IgG) VH: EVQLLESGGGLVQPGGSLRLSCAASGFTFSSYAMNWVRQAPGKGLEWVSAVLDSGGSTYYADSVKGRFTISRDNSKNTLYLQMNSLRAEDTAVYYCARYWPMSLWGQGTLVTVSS VL: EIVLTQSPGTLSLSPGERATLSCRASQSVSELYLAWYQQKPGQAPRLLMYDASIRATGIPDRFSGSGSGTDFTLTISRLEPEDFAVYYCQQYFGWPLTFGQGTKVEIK = 4.73e+06

stdin: Which kon reading was recorded for the binder C01_Rd4_6nM_C26 (antibody, V domains shown, IgG) VH: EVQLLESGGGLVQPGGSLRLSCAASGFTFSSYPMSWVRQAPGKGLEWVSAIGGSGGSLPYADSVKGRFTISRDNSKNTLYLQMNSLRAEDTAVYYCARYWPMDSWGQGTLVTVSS VL: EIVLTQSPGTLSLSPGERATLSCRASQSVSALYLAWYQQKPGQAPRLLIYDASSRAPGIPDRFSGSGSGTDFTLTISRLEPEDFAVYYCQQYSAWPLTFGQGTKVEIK ?
stdout: 1.5e+07

stdin: # repeat for A02_Rd4_6nM_C03 (antibody, V domains shown, IgG) VH: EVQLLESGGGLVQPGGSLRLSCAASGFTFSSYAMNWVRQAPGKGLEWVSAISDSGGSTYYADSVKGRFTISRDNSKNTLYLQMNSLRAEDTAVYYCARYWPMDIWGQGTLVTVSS VL: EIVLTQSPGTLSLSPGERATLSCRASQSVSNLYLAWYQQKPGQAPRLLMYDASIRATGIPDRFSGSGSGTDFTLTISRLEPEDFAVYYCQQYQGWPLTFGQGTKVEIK
stdout: 1.69e+06

stdin: # repeat for C01_Rd4_6nM_C09 (antibody, V domains shown, IgG) VH: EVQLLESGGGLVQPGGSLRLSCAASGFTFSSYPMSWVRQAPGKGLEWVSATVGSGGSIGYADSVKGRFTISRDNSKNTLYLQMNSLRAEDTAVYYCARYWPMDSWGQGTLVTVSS VL: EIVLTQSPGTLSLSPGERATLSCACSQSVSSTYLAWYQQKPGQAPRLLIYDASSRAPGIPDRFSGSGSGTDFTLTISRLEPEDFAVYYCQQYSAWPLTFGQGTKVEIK
stdout: 1.58e+07

stdin: # repeat for C01_Rd4_0.6nM_C03 (antibody, V domains shown, IgG) VH: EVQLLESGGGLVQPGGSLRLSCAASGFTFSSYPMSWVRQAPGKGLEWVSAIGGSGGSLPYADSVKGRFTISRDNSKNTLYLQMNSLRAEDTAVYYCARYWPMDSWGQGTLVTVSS VL: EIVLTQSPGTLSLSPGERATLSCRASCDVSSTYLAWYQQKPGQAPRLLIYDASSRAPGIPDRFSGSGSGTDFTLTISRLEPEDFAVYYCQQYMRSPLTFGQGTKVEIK
stdout: 1.55e+07

stdin: # repeat for COMBO_Rd4_0.6nM_C17 (antibody, V domains shown, IgG) VH: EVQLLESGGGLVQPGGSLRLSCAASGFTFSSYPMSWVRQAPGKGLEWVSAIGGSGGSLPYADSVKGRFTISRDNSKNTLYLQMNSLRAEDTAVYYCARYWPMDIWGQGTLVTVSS VL: EIVLTQSPGTLSLSPGERATLSCRASQGISSTYLAWYQQKPGQAPRLLMYDASIRATGIPDRFSGSGSGTDFTLTISRLEPEDFAVYYCQQYAYWPLTFGQGTKVEIK
stdout: 8.68e+06
